Test system: F1*sub RNA substrate (template-directed ligation)
test-protocol: fraction ligated after 30 min (ligated reads / total reads); higher = more ligase activity; sequences stand for … in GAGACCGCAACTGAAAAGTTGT…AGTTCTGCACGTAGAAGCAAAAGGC
protocol-conditions: 42 °C
Label satisfied when fraction ligated is at or above 0.7; otherwise label not satisfied.

sequence-code	tested-target	group-label
TTCACTGTCGTAAGACCTTTGGATGGGTTGA [3d346]	F1*sub RNA substrate (template-directed ligation)	satisfied
GGTATCACTTGTCGTAAGACACTTTGGATGTTGA [s36]	F1*sub RNA substrate (template-directed ligation)	not satisfied
TATCATTGTCGTAAACCTTTGGATGGGTTGA [3d1228]	F1*sub RNA substrate (template-directed ligation)	satisfied
ATCACTTGTCGTAGACACTTTGGAGGGTTGA [3d207]	F1*sub RNA substrate (template-directed ligation)	not satisfied
TATCCTTGTCGAGACACTTTGGATGGGTTGA [3d1029]	F1*sub RNA substrate (template-directed ligation)	satisfied
TATCCTTGTCGTAAGACACTTTGGATGGGTTA [2d107]	F1*sub RNA substrate (template-directed ligation)	not satisfied
ATCCTTGTCGTAAGACACTTGGATGGGTTGA [3d79]	F1*sub RNA substrate (template-directed ligation)	satisfied
TACACTTGTGTAAGCACTTTGGATGGGTTGA [3d621]	F1*sub RNA substrate (template-directed ligation)	not satisfied
TATCACTTGTCGAAGACATTTGATGGGTTGA [3d1951]	F1*sub RNA substrate (template-directed ligation)	not satisfied
TACACTTGTCGTAAGAACTTTGGTGGGTTGA [3d695]	F1*sub RNA substrate (template-directed ligation)	not satisfied
TATCACTTGTCGTAGACATTTGGTGGGTTGA [3d2030]	F1*sub RNA substrate (template-directed ligation)	not satisfied
